Tested on: Escherichia coli TOP10;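 further: peptides expressed intracellularly from a pBAD plasmid library in pooled LB shake-flask culture, induced with 0.3% L-arabinose, DNA abundance read by NGS, three biological replicates, DESeq2 with apeglm shrinkage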
Test: shrunken log2 fold change of peptide-encoding DNA abundance (4.5 h post-induction vs induction); higher = less antimicrobial activity (less host growth inhibition)
Details: time post-induction: 4.5 h; library: site-saturation at positions 5, 18, 19, 20
Below, each entry is listed with its recorded shrunken log2 fold change.

RRIRQRPPRLPRPRPRPSTGPRP | -0.0811

The recorded shrunken log2 fold change for "RRIRFRPPRLPRPRPRPLGVPRP" is 0.0349

The recorded shrunken log2 fold change for "RRIRARPPRLPRPRPRPCMSPRP" is 0.19

The recorded shrunken log2 fold change for "RRIRMRPPRLPRPRPRPVPNPRP" is 0.12

The recorded shrunken log2 fold change for "RRIRMRPPRLPRPRPRPDSEPRP" is 1.82

The recorded shrunken log2 fold change for "RRIRARPPRLPRPRPRPEIKPRP" is 1.77
